Sourced from patent US20250312352A1

target: GLP-1R (Homo sapiens); assay: GLP-1R activation cAMP assay (Assay 1 or Assay 2); conditions: cAMP increase in CHO cells stably expressing GLP-1R; compounds run on one of the two cAMP assays
observedProperty: EC50 (pM)
One number for each entry, in pM.

Solved entries (count: 2):
itemSmiles | EC50 [pM]
Cn1nccc1CNC(=O)c1cc(Cl)c(COc2cccc(-c3cc(F)c(Cc4nc5ccc(C(=O)O)cc5n4C[C@@H]4CCO4)cc3F)n2)cn1 | 110
O=C(O)c1ccc2nc(Cc3cc(F)c(-c4cccc(OCc5nnc(-c6cnn(C7CC7)c6)s5)n4)cc3F)n(C[C@@H]3CCO3)c2c1 | 130

Could you now consider this next compound?
Query: Query for GLP-1R (Homo sapiens): what EC50 does the record show for CNC(=O)c1csc(COc2cccc(-c3cc(F)c(Cc4nc5ccc(C(=O)O)cc5n4C[C@@H]4CCO4)cc3F)n2)n1 ?
Result: 79

###

biological target: GLP-1R (Homo sapiens); assay: GLP-1R activation cAMP assay (Assay 1 or Assay 2); conditions: cAMP increase in CHO cells stably expressing GLP-1R; compounds run on one of the two cAMP assays
observedProperty: EC50 (nM)
Numbers only, in nM.

molecule | targetOrTestSystem | quantitativeResult
Cc1nc(COc2cccc(-c3cc(F)c(Cc4nc5ccc(C(=O)O)cc5n4C[C@@H]4CCO4)cc3F)n2)sc1Br [Example 27] | GLP-1R (Homo sapiens) | 0.08
CC1(C)COC[C@H]1n1c(Cc2cc(F)c(-c3ccc(F)c(OCc4ncc(C(F)(F)F)s4)n3)cc2F)nc2ccc(C(=O)O)cc21 [Example 415] | GLP-1R (Homo sapiens) | 0.189
Cn1cc(-c2nnc(COc3cccc(-c4cc(F)c(Cc5nc6ccc(C(=O)O)cc6n5C[C@@H]5CCO5)cc4F)n3)s2)cn1 [Example 91] | GLP-1R (Homo sapiens) | 0.12

Please supply EC50 for each of the following items, keeping them in order.
1. Cn1ccc(C#Cc2ccc(COc3cccc(-c4cc(F)c(Cc5nc6ccc(C(=O)O)cc6n5C[C@@H]5CCO5)cc4F)n3)c(F)c2)cc1=O [Example 357]
2. O=C(O)c1ccc2nc(Cc3cc(F)c(-c4cccc(OCc5ncc(C(F)(F)F)s5)n4)cc3F)n(C[C@@H]3CCO3)c2c1 [Example 54]
3. COCCn1c(Cc2cc(F)c(-c3cccc(OCc4ccc(C#CC(C)(C)S(C)(=O)=O)nc4)n3)cc2F)nc2ccc(C(=O)O)cc21 [Example 221]
4. Cn1cc(-c2cnc(COc3cccc(-c4cc(F)c(Cc5nc6ccc(C(=O)O)cc6n5C[C@@H]5CCO5)cc4F)n3)s2)cn1 [Example 79]

Result:
1. 0.508
2. 0.09
3. 1070
4. 0.06

Please supply EC50 for each of the following items, keeping them in order.
1. C[C@H](C#N)NC(=O)c1cc(Cl)c(COc2cccc(-c3cc(F)c(Cc4nc5ccc(C(=O)O)cc5n4C[C@@H]4CCO4)cc3F)n2)cn1 [Example 200]
2. Cn1cc(C#Cc2ccc(COc3nc(-c4cc(F)c(Cc5nc6c(F)cc(C(=O)O)cc6n5C[C@@H]5CCO5)cc4F)ccc3F)cn2)cn1 [Example 295]
3. NC(=O)c1ccc(COc2cccc(-c3cc(F)c(Cc4nc5ccc(C(=O)O)cc5n4C[C@@H]4CCO4)cc3F)n2)nc1 [Example 248]

Result:
1. 0.24
2. 0.202
3. 5.61

###

For each record, write down the corresponding pEC50.
target: UniProt P43220; assay: GLP-1R activation cAMP assay (Assay 1 or Assay 2); conditions: cAMP increase in CHO cells stably expressing GLP-1R; compounds run on one of the two cAMP assays
Answers are plain numbers, as −log10 of the molar value.

Solved entries (count: 8):
compound | pEC50
CNC(=O)c1cc(Cl)c(COc2cccc(-c3cc(F)c(Cc4nc5ccc(C(=O)O)cc5n4C[C@@H]4CCO4)cc3F)c2)cn1 [Example 444] | 9.36
O=C(O)c1ccc2nc(Cc3cc(F)c(-c4cccc(OCc5nc6cccnc6s5)n4)cc3F)n(C[C@@H]3CCO3)c2c1 [Example 26] | 9.64
N#CC1(NC(=O)c2cc(Cl)c(COc3cccc(-c4cc(F)c(Cc5nc6c(F)cc(C(=O)O)cc6n5C[C@@H]5CCO5)cc4F)n3)cn2)COC1 [Example 188] | 10.30
COc1nnc(COc2cccc(-c3cc(F)c(Cc4nc5ccc(C(=O)O)cc5n4[C@@H]4COCC4(C)C)cc3F)n2)s1 [Example 342] | 10.41
N#CC1(NC(=O)c2cc(Cl)c(COc3cccc(-c4cc(F)c(Cc5nc6c(F)cc(C(=O)O)cc6n5C[C@@H]5CCO5)cc4F)n3)cn2)CCC1 [Example 190] | 9.70
O=C(O)c1ccc2nc(Cc3cc(F)c(-c4cccc(OCc5nc6cc(Cl)ccc6s5)n4)cc3F)n(C[C@@H]3CCO3)c2c1 [Example 35] | 9.66
Cn1cncc1C#Cc1cnc(COc2cccc(-c3cc(F)c(Cc4nc5ccc(C(=O)O)cc5n4C[C@@H]4CCO4)cc3F)n2)cn1 [Example 156] | 8.92
O=C(O)c1ccc2nc(Cc3cc(F)c(-c4cccc(OCc5cncs5)n4)cc3F)n(C[C@@H]3CCO3)c2c1 [Example 167] | 9.06

Please supply pEC50 for each of the following items, keeping them in order.
1. CC1(C)COC[C@H]1n1c(Cc2cc(F)c(-c3ccnc(OCc4ccc(Cl)s4)n3)cc2F)nc2ccc(C(=O)O)cc21 [Example 418]
2. O=C(O)c1ccc2nc(Cc3cc(F)c(-c4cccc(OCc5ccn(C(F)(F)F)n5)n4)cc3F)n(C[C@@H]3CCO3)c2c1 [Example 12]
3. Cn1cc(-c2cc(COc3cccc(-c4cc(F)c(Cc5nc6ccc(C(=O)O)cc6n5C[C@@H]5CCO5)cc4F)n3)nn2C)cn1 [Example 109]
4. O=C(O)c1ccc2nc(Cc3cc(F)c(-c4cccc(OCc5ccc(Cl)s5)n4)cc3F)n(C[C@@H]3CCO3)c2c1 [Example 317]

Result:
9.42
8.94
9.21
9.90

###

For each record, write down the corresponding EC50.
molecular target: GLP-1R (Homo sapiens, UniProt P43220); experiment: GLP-1R activation cAMP assay (Assay 1 or Assay 2); details: cAMP increase in CHO cells stably expressing GLP-1R; compounds run on one of the two cAMP assays
Sequence (P43220 24-463): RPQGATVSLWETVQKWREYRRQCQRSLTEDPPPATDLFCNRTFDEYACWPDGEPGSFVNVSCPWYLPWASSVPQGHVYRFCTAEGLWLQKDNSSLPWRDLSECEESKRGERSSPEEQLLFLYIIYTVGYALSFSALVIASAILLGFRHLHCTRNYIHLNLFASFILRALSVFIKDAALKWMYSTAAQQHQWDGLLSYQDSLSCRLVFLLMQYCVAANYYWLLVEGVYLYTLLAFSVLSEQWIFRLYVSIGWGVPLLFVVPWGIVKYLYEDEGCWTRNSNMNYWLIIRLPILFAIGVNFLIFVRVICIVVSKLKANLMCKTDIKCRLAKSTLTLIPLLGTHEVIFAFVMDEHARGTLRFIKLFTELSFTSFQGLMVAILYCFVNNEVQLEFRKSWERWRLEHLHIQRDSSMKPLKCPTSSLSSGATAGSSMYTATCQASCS
One number for each entry, in pM.

Solved entries (count: 4):
compound | EC50, pM
O=C(O)c1ccc2nc(Cc3cc(F)c(-c4cccc(OCc5ncc(-c6cnn(C(F)F)c6)s5)n4)cc3F)n(C[C@@H]3CCO3)c2c1 | 70
CC(F)(F)c1cnc(COc2nc(-c3cc(F)c(Cc4nc5c(F)cc(C(=O)O)cc5n4[C@@H]4COCC4(C)C)cc3F)ccc2F)s1 | 218
O=C(O)c1ccc2nc(Cc3cc(F)c(-c4ccc(F)c(OCc5ncc(C(F)(F)F)s5)n4)cc3F)n(C[C@@H]3CCO3)c2c1 | 280
CCOc1nnc(COc2nc(-c3ccc(Cc4nc5ccc(C(=O)O)cc5n4[C@@H]4COCC4(C)C)c(F)c3)ccc2F)s1 | 497

Could you now consider this next compound?
Query: For the compound shown here, COc1nnc(COc2cccc(-c3cc(F)c(Cc4nc5ccc(C(=O)O)cc5n4C4COCC4(C)C)c(F)c3F)n2)s1 (centres unmarked) , give the reported EC50.
Result: 311

###

target: GLP-1R (Homo sapiens, UniProt P43220); assay: GLP-1R activation cAMP assay (Assay 1 or Assay 2); settings: cAMP increase in CHO cells stably expressing GLP-1R; compounds run on one of the two cAMP assays
observedProperty: pEC50
Numbers only, as −log10 of the molar value.

compound | pEC50
CCOc1nnc(COc2cccc(-c3cc(F)c(Cc4nc5ccc(C(=O)O)cc5n4[C@@H]4COCC4(C)C)cc3C)c2)s1 | 9.24
CN1CC(n2cc(-c3ccc(COc4cccc(-c5cc(F)c(Cc6nc7ccc(C(=O)O)cc7n6C[C@@H]6CCO6)cc5F)n4)c(F)c3)nn2)C1 | 8.68
Cn1cc(C#Cc2ccc(COc3cccc(-c4cc(F)c(Cc5nc6ccc(C(=O)O)cc6n5C[C@@H]5CCO5)cc4F)n3)s2)cn1 | 9.89

Please supply pEC50 for each of the following items, keeping them in order.
1. O=C(O)c1ccc2nc(Cc3cc(F)c(-c4cccc(OCc5ncc(C#Cc6cncs6)cc5F)n4)cc3F)n(C[C@@H]3CCO3)c2c1
2. O=C(O)c1ccc2nc(Cc3cc(F)c(-c4cccc(OCc5ncc(C#Cc6ccc(F)cc6)cc5F)n4)cc3F)n(C[C@@H]3CCO3)c2c1
3. Cc1nnc(COc2cccc(-c3cc(F)c(Cc4nc5ccc(C(=O)O)cc5n4[C@@H]4COCC4(C)C)c(F)c3F)n2)s1 (single isomer, unassigned) [Example 281A]

Result:
9.60
9.74
9.57
